test system: HL-60(TB) leukemia; experiment: NCI tumour cell line growth inhibition, 48 h; in the data active means GI50 below about 0.43 µM; inactive means the rest
Outcomes you can answer with include only these: active, inactive

Look up the recorded call for `COc1ccc2c(c1)C(=O)c1c-2c(N(C)C)nc2ccccc12` in this test.
inactive

Moving on to Cn1cc(C2=C(c3cccc(OCC(O)CO)c3)C(=O)NC2=O)c2ccccc21 (stereo unspecified)
inactive

Moving on to `CC(C)(O)CC(=O)NCCn1ccc2ncnc(Nc3ccc(Oc4cccc(C(F)(F)F)c4)c(Cl)c3)c21`
inactive

Moving on to `CCN(CC)Cc1ccc(Nc2nccc(-c3cnn4ncccc34)n2)cc1`
active

Moving on to `CCCCN(CCCC)c1ccc(C(=N)c2ccc(N(CCCC)CCCC)cc2)cc1`
inactive

Moving on to `NC(=O)c1c(NC(=O)c2ccc3c(c2)OCO3)sc2c1CCC(=O)C2`
inactive

---

Could you please report measured TGI for the items listed next?
system: SF-268 CNS; assay: NCI tumour cell line growth inhibition, 48 h

Fill in the blank: the reported TGI of COC(=O)C(Cc1ccccc1)NP(=O)(O)OCC1OC(n2cc(F)c(=O)[nH]c2=O)CC1O (stereo not given) is ____.
> 100 µM

Moving on to O=[N+]([O-])c1cccc([As]=[As]c2cccc([N+](=O)[O-])c2)c1 (stereo not given)
0.228 µM

Moving on to `O=C(Nc1cccc(NC(=O)Nc2cc(C(F)(F)F)ccc2Cl)c1)Nc1cc(C(F)(F)F)ccc1Cl`
34.2 µM

Moving on to C/C=C(/COC(C)=O)C(=O)OC1C=C(C=O)C(C)(C)C=C1C (stereo not given)
> 100 µM

Moving on to `CS[C@]12C(=O)C[C@@]3(C)[C@@H](CC[C@]3(O)C(=O)CO)[C@@H]1CCC1=CC(=O)CC[C@@]12C`
> 100 µM

Moving on to `COC(=O)c1c(O)ccc2c1c1c(n2Cc2cccc(C)c2)C(=O)c2ccccc2C1=O`
25.9 µM

Moving on to `O=C1/C(=N\S(=O)(=O)c2ccccc2)C([n+]2ccc(Cc3ccccc3)cc2)=C([O-])c2ccccc21`
3.9 µM

Moving on to CC(=O)C1C(=O)C(=O)N(c2ccccc2C(C)C)C1=O (stereo not given)
> 100 µM

Moving on to `O=c1oc2ccccc2cc1-c1cn2cc(Cl)ccc2n1`
16.7 µM

Moving on to `C1=C2/CC[C@H](Sc3ccccc3)[C@H]2C2(CCCCC/1)OCCO2`
> 100 µM

Moving on to `COc1ccc(/C=N/N=C(\N)NO)c(OC)c1`
> 100 µM

Moving on to `C[C@]12CC[C@H]3[C@@H](CC[C@]4(O)C[C@@H](O)CC[C@]34/C=N/O)[C@@]1(O)CC[C@@H]2C1=COC(=O)C1`
0.331 µM

Moving on to `NC(=O)c1c(NC(=O)c2ccc3c(c2)OCO3)sc2c1CCC(=O)C2`
> 100 µM

Moving on to `Cc1ccc(CNc2c3ccccc3nc3cc(NC(=O)CCN4CCCC4)ccc23)cc1`
2.31 µM

Moving on to `CCOC(=O)NC(=O)c1cn(CCN2CCN(c3ncnc4nc[nH]c34)CC2)c(=O)[nH]c1=O`
> 100 µM

Moving on to `COc1ccc(-n2c(=O)n(C)c(=O)n2-c2ccc(OC)cc2)cc1`
> 100 µM

Moving on to O=c1c2ccccc2nc(-c2ccccc2)n1NC1OC(CO)C(O)C(O)C1O (stereo not given)
> 100 µM

Moving on to Cc1cccc(C(C)C)c1NC(=O)CC1C(=O)Nc2ccccc2S1(=O)=O (stereo not given)
29.5 µM

Moving on to C=C(C)C(O)C(O)c1c(OC)ccc2ccc(=O)oc12 (stereo not given)
> 100 µM

Moving on to `COc1cc(C(=O)NC2CCN(C)CC2)c(F)cc1Nc1ncc2c(n1)N(C1CCCC1)CC(F)(F)C(=O)N2C`
12.1 µM

Moving on to COc1ccc2ccccc2c1C1OC(=O)c2ccccc21 (stereo not given)
> 100 µM

Moving on to `CC(C)C(OC(=O)c1ccc(NCc2cc(O)ccc2O)cc1)C(C)C`
5.3 µM

Moving on to `CC(=O)c1c(C(F)(F)F)n([O-])c2cc(Cl)c(Cl)cc2[n+]1=O`
2.53 µM

Moving on to Nc1ncnc2c1nnn2C1CCC(CP(=O)(O)O)C1 (stereo not given)
> 100 µM

Moving on to C=C1C(=O)OC2C1C(OC(=O)/C(C)=C/C)CC(O)(CCl)C1C(O)C3OC3(C)C21O (stereo not given)
> 50 µM

Moving on to CN1c2ccccc2N(C)C23N(C)c4ccccc4N(C)C12N(C)c1ccccc1N3C (stereo not given)
> 100 µM

Moving on to `CC(C)(Oc1ccc(Cl)cc1)C(=O)N(C(=O)N1CCC(c2ccccc2)CC1)c1ccccc1`
> 100 µM

Moving on to `CC1(C)CC(C)(C)C1=NNC(N)=O`
> 100 µM

Moving on to `CC(C)(O)CC(=O)NCCn1ccc2ncnc(Nc3ccc(Oc4cccc(C(F)(F)F)c4)c(Cl)c3)c21`
> 10 µM

Moving on to `COc1ccc(C)cc1Nc1nnc(-c2ccccc2N)s1`
> 100 µM

Moving on to CCOC(=O)C(NC(=O)CC)(Nc1cc(C)on1)C(F)(F)F (stereo not given)
> 100 µM

Moving on to `Cc1cc(N2CCCC2)nc(N(CCNc2ccnc3cc(Cl)ccc23)Cc2ccco2)n1`
> 100 µM

Moving on to CC1(O)CC(=O)c2c(cc3ccc(-c4c5c(c(O)c6c(O)cccc46)C(=O)CC(C)(O)C5)c(O)c3c2O)C1 (stereo not given)
1.81 µM

Moving on to Cn1cc(C2=C(c3cccc(OCC(O)CO)c3)C(=O)NC2=O)c2ccccc21 (stereo not given)
> 25 µM

Moving on to `C/C=C(\C)C(=O)O[C@H]1C=CC(=O)O[C@@H]1CC[C@H](O)[C@H](C)O`
> 100 µM

Moving on to `CCN(CC)c1ccc2cc(C(=O)Nc3cccc4ccccc34)c(=N)oc2c1`
> 100 µM

Moving on to COc1ccc(C(SC2C(O)C(CO)OC2n2ccc(N)nc2=O)(c2ccccc2)c2ccc(OC)cc2)cc1 (stereo not given)
39.5 µM

Moving on to `Cc1c2c(nn1C)CSCc1cc(n(C)n1)CSc1cc(c3ccccc3c1)OCCCc1c(C(=O)O)n(C)c3c-2c(Cl)ccc13`
16.3 µM

Moving on to `C[C@H]1C[C@H]2[C@@H]3C(C)(C)O[C@]4(O)C(=O)[C@]5(O)[C@@H](C)CC[C@H]1[C@]25C(=O)[C@]34C`
> 100 µM

Moving on to OC(CCNCc1ccccc1)c1ccc2ccccc2c1 (stereo not given)
48 µM

---

test system: SK-MEL-2 melanoma; test: NCI tumour cell line growth inhibition, 48 h
test readout: log10 TGI (log10 of the value in µM)
Please be aware that the numbers have been log10-transformed from TGI in µM.

Fill in the blank: the reported log10 TGI of `CC(C)C(OC(=O)c1ccc(NCc2cc(O)ccc2O)cc1)C(C)C` is ____.
0.82

Moving on to COc1ccc(/C=C2\CCCC3=C2NC(N)=NC3c2ccc(OC)c(OC)c2)cc1OC (stereo not given)
1.91

Moving on to `C=C(CO[Si](C)(C)C(C)(C)C)C(C)=O`
1.74

Moving on to `O=C(Nc1ccc(Cl)c(Cl)c1)O/N=C\c1c(Cl)ccc([N+](=O)[O-])c1Cl`
0.70

Moving on to COc1c2c(nc3ccccc13)-c1cc3c(c(=O)n1C2)COC(=O)C3(O)CC(=O)N1CCOCC1 (stereo not given)
1.81

Moving on to `O=C(Cn1c(C(=O)/C=C/c2cccs2)nc2ccccc21)c1ccc(Cl)cc1`
1.32

---

system: SR leukemia; assay: NCI tumour cell line growth inhibition, 48 h
test readout: TGI

Fill in the blank: the reported TGI of `COc1ccc(C2=NN(c3ccccc3)C[N+](c3ccc(OC)cc3)=N2)cc1` is ____.
> 100 µM

Moving on to `O=c1oc2ccccc2cc1-c1cn2cc(Cl)ccc2n1`
> 39.2 µM

Moving on to CC(C)c1cccc2sc(NC(=O)C(=O)C(C#N)c3cccc4ccccc34)nc12 (stereo not given)
> 100 µM

Moving on to `Oc1c([Si](c2ccccc2)(c2ccccc2)c2ccccc2)cc2ccccc2c1-c1c(O)c([Si](c2ccccc2)(c2ccccc2)c2ccccc2)cc2ccccc12`
> 100 µM

Moving on to `Cc1ccc(S(=O)(=O)Nc2cccc3[nH]c(C(F)(F)F)nc23)cc1`
22 µM

---

system: DU-145 prostate; assay: NCI tumour cell line growth inhibition, 48 h
test readout: TGI (µM)
The reply should contain only the number, in µM.

Fill in the blank: the reported TGI of `Clc1nc(Cl)c2ncn(C/C=C/COc3cccc(OC/C=C/Cn4cnc5c(Cl)nc(Cl)nc54)c3)c2n1` is ____.
27.8

Moving on to `O=C(Nc1nc2ccccc2s1)c1cc([N+](=O)[O-])ccc1Cl`
86.3

Moving on to `CCCOC(=O)N1CCN(/[N+]([O-])=N/Oc2ccc([N+](=O)[O-])cc2[N+](=O)[O-])CC1`
3.53
